Source listed as the RNAGym collection of RNA variant scans (doi:10.1021/acssynbio.7b00057).

B1: Pistol ribozyme (parent)
chain: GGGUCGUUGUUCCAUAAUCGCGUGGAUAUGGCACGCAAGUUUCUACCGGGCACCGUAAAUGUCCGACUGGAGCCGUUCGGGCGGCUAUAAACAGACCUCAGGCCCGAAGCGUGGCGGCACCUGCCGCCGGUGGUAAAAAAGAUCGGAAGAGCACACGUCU

variants of: B1; assay: aptazyme ON/OFF ratio, guanine; higher = stronger switching; co-transcriptional cleavage with and without guanine
REPORTED_PROPERTY: aptazyme ON/OFF ratio

                     variant_string  recorded_result
 0            U7G U8C G9U C12G C13A             1.18
 1      U7A G9C U10C U11G C12U C13A             1.04
 2               U8A U11C C12A C13G             1.17
 3  U7C U8A G9U U10G U11A C12G C13U              1.2
 4  U7G U8A G9C U10C U11G C12A C13A             1.02
 5           U8G G9C U10A U11G C13G             1.04
 6       U7A U8A G9U U10G C12U C13U             1.51
 7      U7A U8G U10G U11C C12G C13A             1.22
 8           U8A G9C U10G C12A C13U             1.37
 9                U7A U8A C12U C13U             1.38
10      U7C G9C U10C U11G C12G C13G             1.11
